Provenance of the data: the supplement of paper PMC3334620

- assayed-target: Sko1 (UniProt Q02100)
- Sequence: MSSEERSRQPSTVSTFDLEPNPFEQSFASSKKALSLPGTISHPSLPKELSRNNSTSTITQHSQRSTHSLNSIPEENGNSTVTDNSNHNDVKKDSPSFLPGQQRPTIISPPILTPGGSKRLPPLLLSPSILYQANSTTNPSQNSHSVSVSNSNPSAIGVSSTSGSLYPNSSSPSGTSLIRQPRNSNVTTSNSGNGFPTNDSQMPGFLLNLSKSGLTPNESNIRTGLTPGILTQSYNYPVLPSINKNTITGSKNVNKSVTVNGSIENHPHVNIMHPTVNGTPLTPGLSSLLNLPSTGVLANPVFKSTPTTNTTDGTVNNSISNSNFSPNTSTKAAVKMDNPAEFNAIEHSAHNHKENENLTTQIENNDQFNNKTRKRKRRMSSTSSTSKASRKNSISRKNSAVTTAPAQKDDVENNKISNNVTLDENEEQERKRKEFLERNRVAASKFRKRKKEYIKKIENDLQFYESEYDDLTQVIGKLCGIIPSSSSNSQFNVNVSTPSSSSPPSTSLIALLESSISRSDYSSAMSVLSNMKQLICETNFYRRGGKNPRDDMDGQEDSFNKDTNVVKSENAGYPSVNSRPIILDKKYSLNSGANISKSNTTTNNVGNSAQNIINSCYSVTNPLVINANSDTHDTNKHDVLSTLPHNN
- measurement-notes: PBM E-score (8-mer binding enrichment) (E-score (-0.5 to 0.5)); higher = stronger / more preferred TF binding
- test-conditions: protein concentration: 200 nM; construct: GST-full length
The full ranking holds about 33,000 sequences; the median of “E-score (-0.5 to 0.5)” is about -0.032, and the highest 2% start at about 0.36. The entries come from a sample that favours the highest values as a whole.
Let's look at some sequences and their measured PBM E-score.
measurement-label: PBM E-score

>>> df
    item_sequence  measured_value
 0       AAGCGGGT          -0.268
 1       ACGTATGC           0.458
 2       GCGTTGGA        -0.00317
 3       CCGTATTC          0.0573
 4       TACGTGCA           0.423
 5       CCGTACCC          -0.335
 6       ACTTAGCT          -0.211
 7       ATCATACA           0.257
 8       CATTTAAA           0.178
 9       CTGGATGC           -0.36
10       AACGTGAA            0.14
11       CCGTAGCC          -0.259
12       GCGTATGA           0.337
13       AGAGACGA          0.0256
14       CAGACCAC         -0.0177
15       CTTCTCTA          -0.284
16       ATGTATTG           0.196
17       AGGTTAAA          -0.104
18       GGCGGACC          -0.321
19       GACCGCTC           -0.21
20       GACGTGCC           0.266
21       CGTCACAC           0.437
22       ACGTTTCG           0.347
23       CTTGTGCA          -0.154
24       TGTCACAA           0.133
25       CGGGATAA          0.0877
26       CAGTATGC         -0.0805
27       AAGAAAGG         0.00665
28       CTTGATGC          -0.116
29       ATCATACG           0.365
30       CCAGAGAC          -0.251
31       ATGAATTC          0.0634
32       GCGTACCC        -0.00205
33       ATCATACC           0.171
34       CGTGAGAA           0.117
35       AGAAGCTG         -0.0693
36       TACGTGGA           0.424
37       CCGTATGA           0.135
38       ACGTACCA           0.444
39       TACCCTGA          -0.126
40       CGTAACTC           0.331
41       AAGTACCG          -0.032
42       ACATTGAA           0.166
43       AGCTCAAT           0.016
44       ACTCCTGA         -0.0495
45       GACAATCA         0.00255
46       CGGTAGCC          0.0295
47       CCTGGCGC          -0.133
48       GGGGAGTA          -0.124
49       AAGTATGG           0.023
50       AGGTATTC          0.0465
51       CGCCCGGA          -0.211
52       GCGTATTA           0.333
53       CGATGCAC         -0.0249
54       AAAGAACT         -0.0725
55       AACATACG           0.387
56       CGGCATGA            0.11
57       AACGTGCA           0.191
58       ACGTAGCG            0.42
59       GACGTGGA            0.23
60       CCGTATGC         -0.0726
61       CAGCTGAC          0.0244
62       CCTCGGCG         -0.0614
63       CGCATACC          0.0198
64       AGCTAGTG        -0.00092
65       GCGTACCA           0.138
66       CGATCGCG          0.0985
67       AAACGGGC          -0.131
68       CTAGGGAG          -0.148
69       GCGTAGCC         0.00349
70       GGCGCGAA          -0.151
71       CACATACG           0.276
